- System: cancer cell lines
- method.notes: Cancer cell proliferation activity (CellTiterGlo, 72 h)
- Type: cell-based
- experimental.setup: Homo sapiens, NCI-H460, 72 h, NCIH460 cell line (lung), 72 h; read-out: IC50
pIC50: −log10 of the molar value.
Recorded pIC50 by entry
measured.property: pIC50

>>> observed("Cc1cn([C@H]2C[C@H](O)[C@@](C#N)(CO)O2)c(=O)[nH]c1=O")
5.55
>>> observed("CC[C@]1(CO)O[C@@H](n2cnc3c(N)nc(F)nc32)[C@H](O)[C@@H]1O")
6.82
>>> observed("COC[C@]1(CO)O[C@@H](n2cnc3c(N)nc(F)nc32)C[C@@H]1O")
6.22

----------
- Tested on: cancer cell lines
- method.notes: Cancer cell proliferation activity (CellTiterGlo, 72 h)
- Assay type: cell-based
- experimental.setup: PBMC, 72 h, PBMC (hematological), 72 h; read-out: IC50 cell proliferation
measured.property: IC50 (nM)

>>> observed("Nc1ccn([C@H]2C[C@H](O)[C@](CO)(CF)O2)c(=O)n1")
710
>>> observed("Nc1nc(F)nc2c1ncn2[C@@H]1O[C@H](CO)[C@@H](O)[C@H]1O")
180
>>> observed("CCC[C@]1(CO)O[C@@H](n2cnc3c(N)nc(F)nc32)[C@H](O)[C@@H]1O")
20
>>> observed("C[C@]1(CO)O[C@@H](n2cnc3c(N)nc(F)nc32)[C@H](O)[C@@H]1O")
320
>>> observed("Nc1nc(F)nc2c1ncn2[C@@H]1O[C@H](CO)[C@@H](O)[C@@H]1O")
290
>>> observed("Nc1nc(=O)n([C@H]2C[C@H](O)[C@](CO)(CF)O2)cc1F")
3020
>>> observed("Nc1nc(F)nc2c1ncn2[C@H]1C[C@H](O)[C@@H](CO)O1")
150
>>> observed("C[C@]1(CO)O[C@@H](n2ccc(N)nc2=O)C(F)(F)[C@@H]1O")
2610

----------
Recorded IC50 by entry
- Tested on: cancer cell lines
- method.notes: Cancer cell proliferation activity (CellTiterGlo, 72 h)
- Type: cell-based
- experimental.setup: Homo sapiens, SK-N-SH, 72 h, SKNSH (brain), 72 h; read-out: IC50 cell proliferation
measured.property: IC50 (nM)

>>> observed("C[C@]1(CO)O[C@@H](n2cnc3c(N)nc(F)nc32)[C@H](O)[C@@H]1O")
30
>>> observed("Nc1nc(F)nc2c1ncn2[C@H]1C[C@H](O)[C@@H](CO)O1")
2260
>>> observed("C[C@]1(CO)O[C@@H](n2ccc(N)nc2=O)[C@@H](O)[C@@H]1O")
4780
>>> observed("CCC[C@]1(CO)O[C@@H](n2cnc3c(N)nc(F)nc32)[C@H](O)[C@@H]1O")
80
>>> observed("Nc1nc(F)nc2c1ncn2[C@@H]1O[C@H](CO)[C@@H](O)[C@@H]1O")
22200
>>> observed("Nc1nc(=O)n([C@H]2C[C@H](O)[C@@H](CO)O2)cc1F")
151
>>> observed("Nc1nc(F)nc2c1ncn2[C@@H]1O[C@H](CO)[C@@H](O)[C@H]1O")
30

----------
Recorded pIC50 by entry
- Test system: cancer cell lines
- method.notes: Cancer cell proliferation activity (CellTiterGlo, 72 h)
- Assay type: cell-based
- experimental.setup: Homo sapiens, RD, 72 h, RD cell line (muscle), 72 h; read-out: IC50
pIC50: −log10 of the molar value.
measured.property: pIC50

>>> observed("CCC[C@]1(CO)O[C@@H](n2cnc3c(N)nc(F)nc32)C[C@@H]1O")
6.19
>>> observed("CC(C)C[C@]1(CO)O[C@@H](n2cnc3c(N)nc(F)nc32)C[C@@H]1O")
5.34
>>> observed("C[C@]1(CO)O[C@@H](n2cnc3c(N)nc(F)nc32)C[C@@H]1O")
5.63
>>> observed("Nc1ccn([C@@H]2O[C@H](CO)[C@@H](O)C2(F)F)c(=O)n1 [gemcitabine, reference compound]")
8.64
